Cited source for all entries: PubChem BioAssay (Tox21)

Experiment: qHTS assay to test for compound auto fluorescence at 535 nm (green) in HepG2 cells (AID 720675)
Conditions: green autofluorescence 485/535 nm, 1 h; series mostly up to 46 µM
From the text: National Center for Advancing Translational Sciences [NCATS] NIH Chemical Genomics Center [NCGC] U.S. Environmental Protection Agency [EPA] National Institutes of Environmental Health Sciences [NIEHS] National Toxicology Program [NTP] U.S. Food and Drug Administration [FDA] Compound auto fluorescence often interferes with screening of the compound library against various biological targets and signaling pathways. Some of these compounds may have fluorophoric properties. […]
Active and inactive are the calls of the source. Calls come from the whole dose curve; as a rule, active = well fitted curve in the direction sought with a large enough effect in the repeat runs; inconclusive = weak or mixed curves; inactive = flat fitted curve, though single readings scatter.
Outcomes: active, inactive

NC[C@@H]1O[C@H](O[C@H]2[C@@H](O)[C@H](O[C@@H]3[C@@H](O)[C@H](N)C[C@H](N)[C@H]3O[C@H]3O[C@H](CO)[C@@H](O)[C@H](O)[C@H]3N)O[C@@H]2CO)[C@H](N)[C@@H](O)[C@@H]1O | inactive
COc1cc([C@@H]2c3cc4c(cc3C(O[C@@H]3O[C@@H]5CO[C@@H](C)O[C@H]5[C@H](O)[C@H]3O)C3COC(=O)[C@@H]32)OCO4)cc(OC)c1OP(=O)(O)O (stereo partly drawn) | inactive
CCCCC(C)(O)C/C=C/[C@H]1[C@H](O)CC(=O)[C@@H]1CCCCCCC(=O)OC (stereo partly drawn) | inactive
CC1(C)C(\C=C/C=C\C=C/C=C2/N(CCCCS(=O)(=O)O)c3ccc4ccccc4c3C2(C)C)=[N+](CCCCS(=O)(=O)[O-])c2ccc3ccccc3c21 | inactive
COc1cc(Br)c(C[N+]2(CCOCCC3CCC4CC3C4(C)C)CCOCC2)cc1OC (stereo not drawn) | inactive
CC(=O)O[C@H]1C(=O)[C@@]2(C)[C@H]([C@H](OC(=O)c3ccccc3)[C@]3(O)C[C@H](OC(=O)[C@H](O)[C@@H](NC(=O)c4ccccc4)c4ccccc4)C(C)=C1C3(C)C)[C@]1(OC(C)=O)CO[C@@H]1C[C@@H]2O | inactive
CO[C@@H]1[C@@H](O[C@@H]2O[C@H](C)[C@@H](O[C@H]3C[C@@](C)(O)[C@@H](OC(=O)CC(C)C)[C@H](C)O3)[C@H](N(C)C)[C@H]2O)[C@@H](CC=O)C[C@@H](C)[C@@H](O)/C=C/C=C/C[C@@H](C)OC(=O)C[C@H]1O | inactive
CC(C)(CO)[C@@H](O)C(=O)NCCC(=O)NCCSSCCNC(=O)CCNC(=O)[C@H](O)C(C)(C)CO | inactive
CN1CCN2c3ncccc3Cc3ccccc3C2C1 (stereo not drawn) | inactive
C#CCOc1ccc2c(C)cc(=O)oc2c1 | inactive
CCCCCCCCCCCCCCCC(=O)OCC(COC(=O)CCCCCCCCCCCCCCC)OC(=O)CCCCCCCCCCCCCCC | inactive
Cc1cc2nc3c(=O)[nH]c(=O)nc-3n(C[C@H](O)[C@H](O)[C@H](O)COP(=O)(O)OP(=O)(O)OC[C@H]3O[C@@H](n4cnc5c(N)ncnc54)[C@H](O)[C@@H]3O)c2cc1C | active
C[C@H]1[C@@H](OC(=O)CCC(=O)O)O[C@@H]2OC3(C)CC[C@H]4[C@H](C)CC[C@@H]1[C@@]24OO3 | inactive
